# System: PC3
# procedureDetails: PC3 proliferation
# Assay type: cell-based
# conditionSummary: Homo sapiens, PC-3; Table 1
Assignment: determine reported IC50 for the given compounds.

// known answers, use as guide
## Input Field request: IC50 | item: Nc1nc2cc(-c3nn(C4CCOCC4)c4ncnc(N)c34)ccc2o1
## Output < 0.1 µM

## Input IC50 lookup needed for CC(C)n1nc(-c2ccc3c(N)noc3c2)c2c(N)ncnc21 , thanks.
## Output > 10 µM

## Input # get_value(readout='IC50', item= CC(=O)Nc1noc2cc(-c3nn(C(C)C)c4ncnc(N)c34)ccc12 )
## Output > 10 µM

## Input So what does the record say about IC50 for CC(C)n1nc(-c2ccc3nc(N)oc3c2)c2c(N)ncnc21 ?
## Output < 10 µM

Provide IC50 values for the following items, in order.
1. CC(=O)N1CCC(n2nc(-c3ccc4oc(N)nc4c3)c3c(N)ncnc32)CC1
2. CC(=O)Nc1nc2cc(-c3nn(C(C)C)c4ncnc(N)c34)ccc2o1
3. Nc1nc2cc(-c3nn(C4CCC(N5CCOCC5)CC4)c4ncnc(N)c34)ccc2o1 (stereo not shown)
4. CC(C)n1nc(-c2ccc3onc(N)c3c2)c2c(N)ncnc21
5. Nc1nc2cc(-c3cn(C4CCOCC4)c4ncnc(N)c34)ccc2o1
6. CC(C)n1cc(-c2ccc3oc(N)nc3c2)c2c(N)ncnc21

## Output
1. < 10 µM
2. < 1 µM
3. < 1 µM
4. > 10 µM
5. < 0.1 µM
6. < 0.1 µM
